system: U-87 MG; test: Induction of endoplasmic reticulum stress in human U87MG cells assessed as increase in GRP78 expression at 20 uM measured after 24 hrs by Western blot analysis; assay type: functional, cell-based; settings: U-87MG ATCC
Active and inactive are the calls of the source. No cut-off for these calls is given here.

{"smilesString": "CCCCCN(CCCCC)S(=O)(=O)c1ccc(C(=O)/C=C/c2cccc(C#N)c2)cc1", "Activity": "Active"}
{"smilesString": "COC(=O)c1cccc(/C=C/C(=O)c2cccc(O)c2)c1", "Activity": "Active"}
{"smilesString": "O=C(/C=C/c1ccc(-c2ccncc2)cc1)c1cccc(O)c1", "Activity": "Active"}
{"smilesString": "O=C(/C=C/c1ccc(-c2cccnc2)cc1)c1cccc(O)c1", "Activity": "Active"}
{"smilesString": "CCCCCN(CCCCC)S(=O)(=O)c1ccc(C(=O)/C=C/c2cccc(O)c2)cc1", "Activity": "Active"}
{"smilesString": "N#Cc1cccc(/C=C/C(=O)c2ccc(O)cc2)c1", "Activity": "Active"}
